The measurements presented in this section are drawn from paper PMC6858373.

Molecular target: FGF14:Nav1.6 C-tail complex (Homo sapiens, UniProt Q92915+Q9UQD0)
Construct: polymerase chain reaction (PCR) amplification of the FGF14 open reading frame (nt 1–855); C-terminal fragment of Nav1.6 (amino acids 1763–1976) fused with CD4ΔC-tail (amino acids 1–395); expressed in transfected cells
Sequence (Q92915 1-252 isoform Q92915-2): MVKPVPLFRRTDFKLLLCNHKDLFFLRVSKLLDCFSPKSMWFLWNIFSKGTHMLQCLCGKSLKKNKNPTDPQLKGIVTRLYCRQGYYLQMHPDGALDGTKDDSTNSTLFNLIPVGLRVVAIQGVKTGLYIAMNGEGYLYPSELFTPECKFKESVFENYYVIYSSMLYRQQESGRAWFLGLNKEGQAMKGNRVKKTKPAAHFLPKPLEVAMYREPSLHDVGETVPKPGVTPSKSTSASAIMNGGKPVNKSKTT
Sequence (Q9UQD0 1763-1976 limits assumed): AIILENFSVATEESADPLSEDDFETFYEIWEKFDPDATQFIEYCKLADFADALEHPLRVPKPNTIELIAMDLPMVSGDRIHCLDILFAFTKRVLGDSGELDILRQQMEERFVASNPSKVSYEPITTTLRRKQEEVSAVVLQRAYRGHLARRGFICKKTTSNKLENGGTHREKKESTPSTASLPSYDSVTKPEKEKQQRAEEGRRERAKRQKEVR
Assay: Split-luciferase complementation assay (LCA) in Clone V double stable HEK293 cells
Format: cell-based
Conditions: CC_NCI screening; LCA, biological replicate Set 1; normalized to on-plate 0.3% DMSO controls
Structures can show the parent of a compound that is named as a salt.
Quick rule for you: Split Luciferase Assay Z-score Set 1 under -0.8 gets T, anything else gets F.

Bench note: check whether C[C@]12CC[C@H](O)CC1=CC[C@@H]1[C@@H]2CC[C@]2(C)C(c3cccnc3)=CC[C@@H]12 shows Split Luciferase Assay Z-score Set 1 below -0.8
F

Bench note: check whether OCCn1cc(-c2cnc3nnn(Cc4ccc5ncccc5c4)c3n2)cn1 shows Split Luciferase Assay Z-score Set 1 below -0.8
F

Bench note: check whether CO[C@H]1C(=O)[C@]2(C)[C@@H](OC)C[C@H]3OC[C@@]3(OC(C)=O)[C@H]2[C@H](OC(=O)c2ccccc2)[C@]2(O)C[C@H](OC(=O)[C@H](O)[C@@H](NC(=O)OC(C)(C)C)c3ccccc3)C(C)=C1C2(C)C shows Split Luciferase Assay Z-score Set 1 below -0.8
F

Bench note: check whether N#Cc1ccc(C(c2ccc(C#N)cc2)n2cncn2)cc1 shows Split Luciferase Assay Z-score Set 1 below -0.8
F

Bench note: check whether COc1cc2c(Nc3ccc(Br)cc3F)ncnc2cc1OCC1CCN(C)CC1 shows Split Luciferase Assay Z-score Set 1 below -0.8
T

Bench note: check whether CCC1=C[C@@H]2CN(C1)Cc1c([nH]c3ccccc13)[C@@](C(=O)OC)(c1cc3c(cc1OC)N(C)[C@H]1[C@@](O)(C(=O)OC)[C@H](OC(C)=O)[C@]4(CC)C=CCN5CC[C@]31[C@@H]54)C2 [Vinorelbine tartrate] shows Split Luciferase Assay Z-score Set 1 below -0.8
F

* * *

Target: FGF14:Nav1.6 C-tail complex (Homo sapiens, UniProt Q92915+Q9UQD0)
Construct: polymerase chain reaction (PCR) amplification of the FGF14 open reading frame (nt 1–855); C-terminal fragment of Nav1.6 (amino acids 1763–1976) fused with CD4ΔC-tail (amino acids 1–395); expressed in transfected cells
Test: Split-luciferase complementation assay (LCA) in Clone V double stable HEK293 cells
Format: cell-based
Conditions: CC_NCI screening; LCA luminescence, biological replicate Set 2; normalized to on-plate 0.3% DMSO controls (n=16 per plate)
Provide the recorded Split Luciferase Assay %Lum Set 2 for the entries that follow.
Numeric answer only, unit % assumed.

Given the entry O=C(NOCC1CC1)c1ccc(F)c(F)c1Nc1ccc(I)cc1Cl [CI 1040, reference compound] , report its measured Split Luciferase Assay %Lum Set 2.
42.65

Given the entry CCc1cc(Nc2nccc(-c3c(-c4ccc(OC)c(C(=O)Nc5c(F)cccc5F)c4)nc4ccccn34)n2)c(OC)cc1N1CCC(N2CCN(S(C)(=O)=O)CC2)CC1 [GSK1904529A] , report its measured Split Luciferase Assay %Lum Set 2.
92.59

Given the entry COc1cc2/c(=N/c3ccc(Br)cc3F)nc[nH]c2cc1OCC1CCN(C)CC1 [VANDETANIB] , report its measured Split Luciferase Assay %Lum Set 2.
88.43

Given the entry CCCS(=O)(=O)Nc1ccc(F)c(C(=O)c2c[nH]c3ncc(-c4ccc(Cl)cc4)cc23)c1F [Vemurafenib] , report its measured Split Luciferase Assay %Lum Set 2.
105.07

Given the entry Oc1ccc(-c2nc(-c3ccncc3)c(-c3ccc(F)cc3)[nH]2)cc1 [SB 202190] , report its measured Split Luciferase Assay %Lum Set 2.
105.07

Given the entry CO[C@H]1C[C@@H]2CC[C@@H](C)[C@@](O)(O2)C(=O)C(=O)N2CCCC[C@H]2C(=O)O[C@H]([C@H](C)C[C@@H]2CC[C@@H](OCCO)[C@H](OC)C2)CC(=O)[C@H](C)/C=C(\C)[C@@H](O)[C@@H](OC)C(=O)[C@H](C)C[C@H](C)/C=C/C=C/C=C/1C [Everolimus] , report its measured Split Luciferase Assay %Lum Set 2.
84.27

* * *

Provide the recorded Split Luciferase Assay Z-score Set 1 for the entries that follow.
Target: FGF14:Nav1.6 C-tail complex (Homo sapiens, UniProt Q92915+Q9UQD0)
Construct: polymerase chain reaction (PCR) amplification of the FGF14 open reading frame (nt 1–855); C-terminal fragment of Nav1.6 (amino acids 1763–1976) fused with CD4ΔC-tail (amino acids 1–395); expressed in transfected cells
Experiment: Split-luciferase complementation assay (LCA) in Clone V double stable HEK293 cells
Format: cell-based
Settings: CC_NCI screening, biological replicate Set 1; normalized to on-plate 0.3% DMSO controls
Structures can show the parent of a compound that is named as a salt.
Answer as a number with no unit attached.

Given the entry Nc1ccn([C@@H]2O[C@H](CO)[C@@H](O)[C@@H]2O)c(=O)n1 [Cytarabine hydrochloride] , report its measured Split Luciferase Assay Z-score Set 1.
-0.50

Given the entry S=P(N1CC1)(N1CC1)N1CC1 [Thiotepa] , report its measured Split Luciferase Assay Z-score Set 1.
0.38

Given the entry CN(C)/N=N/c1[nH]cnc1C(N)=O [Dacarbazine] , report its measured Split Luciferase Assay Z-score Set 1.
3.01

Given the entry CC(=O)[C@]1(O)Cc2c(O)c3c(c(O)c2[C@@H](O[C@H]2C[C@H](N)[C@H](O)[C@H](C)O2)C1)C(=O)c1ccccc1C3=O [Idarubicin hydrochloride] , report its measured Split Luciferase Assay Z-score Set 1.
0.12

* * *

Biological target: FGF14:Nav1.6 C-tail complex (Homo sapiens, UniProt Q92915+Q9UQD0)
Construct: polymerase chain reaction (PCR) amplification of the FGF14 open reading frame (nt 1–855); C-terminal fragment of Nav1.6 (amino acids 1763–1976) fused with CD4ΔC-tail (amino acids 1–395); expressed in transfected cells
Assay: Split-luciferase complementation assay (LCA) in Clone V double stable HEK293 cells
Assay type: cell-based
Conditions: CC_NCI screening; LCA luminescence, biological replicate Set 2; normalized to on-plate 0.3% DMSO controls (n=16 per plate)
METRIC: Split Luciferase Assay %Lum Set 2 (%)
Numeric answer only, unit % assumed.

Given the entry c1cc(CN2CCCNCCNCCCNCC2)ccc1CN1CCCNCCNCCCNCC1 , report its measured Split Luciferase Assay %Lum Set 2.
111.31

Given the entry CCCCCCCCCCCCCCCCCCOP(=O)([O-])OC1CC[N+](C)(C)CC1 , report its measured Split Luciferase Assay %Lum Set 2.
89.47

Given the entry CN1CCN(CCOc2cc(OC3CCOCC3)c3c(Nc4c(Cl)ccc5c4OCO5)ncnc3c2)CC1 [AZD 0530] , report its measured Split Luciferase Assay %Lum Set 2.
60.34

Given the entry C#CCC(Cc1cnc2nc(N)nc(N)c2n1)c1ccc(C(=O)N[C@@H](CCC(=O)O)C(=O)O)cc1 (some centres unmarked) [Pralatrexate] , report its measured Split Luciferase Assay %Lum Set 2.
106.11

Given the entry O=C1c2c(O)ccc(O)c2C(=O)c2c(NCCNCCO)ccc(NCCNCCO)c21 , report its measured Split Luciferase Assay %Lum Set 2.
15.60

Given the entry CN1CCN(CCOc2cc(OC3CCOCC3)c3c(Nc4c(Cl)ccc5c4OCO5)ncnc3c2)CC1 [SARACATINIB] , report its measured Split Luciferase Assay %Lum Set 2.
98.83

Given the entry O=P(O)(O)C(O)(Cn1ccnc1)P(=O)(O)O , report its measured Split Luciferase Assay %Lum Set 2.
119.64

Given the entry NC(=O)c1ccc(-c2nc(-c3ccc4c(c3)OCO4)c(-c3ccccn3)[nH]2)cc1 , report its measured Split Luciferase Assay %Lum Set 2.
114.43

* * *

Target: FGF14:Nav1.6 C-tail complex (Homo sapiens, UniProt Q92915+Q9UQD0)
Construct: polymerase chain reaction (PCR) amplification of the FGF14 open reading frame (nt 1–855); C-terminal fragment of Nav1.6 (amino acids 1763–1976) fused with CD4ΔC-tail (amino acids 1–395); expressed in transfected cells
Experiment: Split-luciferase complementation assay (LCA) in Clone V double stable HEK293 cells
Assay type: cell-based
Conditions: CC_NCI screening, biological replicate Set 1; normalized to on-plate 0.3% DMSO controls (n=16 per plate)
Provide the recorded Split Luciferase Assay % Lum Set 1 for the entries that follow.
Numeric answer only, unit % assumed.

Given the entry NS(=O)(=O)c1nn2cc(-c3ccccc3)nc2s1 , report its measured Split Luciferase Assay % Lum Set 1.
122.08

Given the entry CC(=O)O[C@@]12CO[C@@H]1C[C@H](O)[C@@]1(C)C(=O)[C@H](O)C3=C(C)[C@@H](OC(=O)[C@H](O)[C@@H](NC(=O)OC(C)(C)C)c4ccccc4)C[C@@](O)([C@@H](OC(=O)c4ccccc4)[C@H]21)C3(C)C , report its measured Split Luciferase Assay % Lum Set 1.
174.26

Given the entry CCCCC(=O)OCC(=O)[C@]1(O)Cc2c(O)c3c(c(O)c2[C@@H](O[C@H]2C[C@H](NC(=O)C(F)(F)F)[C@H](O)[C@H](C)O2)C1)C(=O)c1c(OC)cccc1C3=O , report its measured Split Luciferase Assay % Lum Set 1.
135.13

Given the entry CC(C)C[C@H](NC(=O)[C@H](CCc1ccccc1)NC(=O)CN1CCOCC1)C(=O)N[C@@H](Cc1ccccc1)C(=O)N[C@@H](CC(C)C)C(=O)[C@@]1(C)CO1 , report its measured Split Luciferase Assay % Lum Set 1.
91.64

Given the entry NC(=O)c1ccc2[nH]ccc2c1 , report its measured Split Luciferase Assay % Lum Set 1.
126.43

Given the entry CC(=O)OCCN1C(=O)c2c(C)nc3ccc(S(=O)(=O)N4CCOCC4)cc3c2C1=O , report its measured Split Luciferase Assay % Lum Set 1.
112.30
